Tested on: A549 infected with HSV-1
Test: cell number in HSV-1-infected wells relative to infected DMSO wells (H2B-RFP signal); higher = more surviving cells (uninfected or antiviral-protected wells give about 200%; low = toxicity)
Conditions: 10 µM; 48 h; MOI: 0.1
Where a name gives a salt, the structure may show the parent alone. In all, about 1,700 compounds were measured (“cell number in HSV-1-infected wells relative to infected DMSO wells (H2B-RFP signal)”: median about 100, highest 2% from about 140 on). The list comes from a sample in which the highest values are over-represented; it also holds close analogues and randomly drawn compounds.
measuredAttribute: cell number in HSV-1-infected wells (%)
Answers are plain numbers, in %.

Answered examples (8):
CN(C)CCC(c1ccc(Cl)cc1)c1ccccn1 (centres undefined) [Chlorpheniramine Maleate] :: 94.3
CC#CCn1c(N2CCC[C@@H](N)C2)nc2c1c(=O)n(Cc1nc(C)c3ccccc3n1)c(=O)n2C :: 95.4
CCC(=O)NS(=O)(=O)c1ccc(-c2c(-c3ccccc3)noc2C)cc1 [Parecoxib Sodium] :: 89.9
Nc1c(CC(=O)O)cccc1C(=O)c1ccccc1 [Amfenac Sodium Monohydrate] :: 115
O=C(O)CSCC(=O)NC1CCSC1=O (centres undefined) :: 121
CC(C)(CO)[C@@H](O)C(=O)NCCCO :: 121
CC(=O)NC1CCSC1=O (centres undefined) :: 144
CCN1CCC[C@H]1CNC(=O)c1cc(S(N)(=O)=O)ccc1OC [Levosulpiride] :: 94.9

The record that follows has no cell number in HSV-1-infected wells shown yet.
stdin: # return recorded cell number in HSV-1-infected wells for entry CCC(=O)NS(=O)(=O)c1ccc(-c2c(-c3ccccc3)noc2C)cc1 [Parecoxib]
stdout: 115
